target_under_test: HDM2 (Homo sapiens)
Construct: Recombinant HDM2 (1.5 μg per well) in TBS-BSA buffer
Sequence (Q00987 whole entry): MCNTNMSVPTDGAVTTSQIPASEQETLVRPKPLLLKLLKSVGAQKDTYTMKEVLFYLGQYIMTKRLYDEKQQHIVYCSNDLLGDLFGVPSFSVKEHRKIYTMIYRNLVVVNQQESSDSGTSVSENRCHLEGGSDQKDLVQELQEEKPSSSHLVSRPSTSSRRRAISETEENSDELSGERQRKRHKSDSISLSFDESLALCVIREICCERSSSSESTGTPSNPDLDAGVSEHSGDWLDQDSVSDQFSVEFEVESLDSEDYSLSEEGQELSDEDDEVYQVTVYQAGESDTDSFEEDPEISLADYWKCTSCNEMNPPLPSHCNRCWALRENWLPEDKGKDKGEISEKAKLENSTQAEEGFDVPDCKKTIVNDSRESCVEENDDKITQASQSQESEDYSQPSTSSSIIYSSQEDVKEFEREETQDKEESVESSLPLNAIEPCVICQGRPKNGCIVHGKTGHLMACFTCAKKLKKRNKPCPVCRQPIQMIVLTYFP
assay_method_text: Fluorescence polarisation competitive HDM2 binding assay
reported_conditions: fluorescence polarisation format; Table 1; read-out: IC50 In vitro competitive HDM2 binding assay
endpoint_label: IC50 (µM)
Number only, in µM; omit the unit.

Short answer for O=[N+]([O-])c1cc(S(=O)(=O)NCCc2c[nH]c3ccc(Cl)cc23)ccc1Cl : IC50 was 311

Input O=[N+]([O-])c1cc(S(=O)(=O)Nc2ccc(O)cc2)sc1Cl . Output IC50: 105

Recorded result, O=[N+]([O-])c1ccccc1S(=O)(=O)Nc1cc(C(F)(F)F)cc(C(F)(F)F)c1 , IC50: 401

Briefly, IC50 measured for CN(c1ccc(Cl)cc1)S(=O)(=O)c1cc([N+](=O)[O-])c(Cl)s1 : 5.9

Value of measured IC50 for the entry O=[N+]([O-])c1cc(S(=O)(=O)Nc2ccc(Cl)cc2)ccc1Cl : 232

The compound listed as Cc1ccc(S(=O)(=O)Nc2ccc(C(F)(F)F)cc2)cc1N shows IC50 equal to 429

Input CN(c1ccc(C(F)(F)F)cc1)S(=O)(=O)c1cc([N+](=O)[O-])c(Cl)s1 . Output IC50: 7.3

Query CC(Cc1c[nH]c2ccccc12)NS(=O)(=O)c1cc([N+](=O)[O-])c(Cl)s1 (stereo not shown) yields IC50 of 46.3

Briefly, IC50 measured for O=[N+]([O-])c1cc(S(=O)(=O)Nc2nc3ccccc3[nH]2)sc1Cl : 40

Reported IC50 for O=[N+]([O-])c1cc(S(=O)(=O)NCc2ccc(Cl)cc2)sc1Cl was 24.8

O=S(=O)(Nc1ccc(F)cc1)c1cc(S(=O)(=O)Nc2ccc(F)cc2)c(Cl)s1 has a reported IC50 of 408

IC50 for O=[N+]([O-])c1cc(S(=O)(=O)Nc2cccc(C(F)(F)F)c2)sc1Cl is 409

// COc1ccc(NS(=O)(=O)c2cc([N+](=O)[O-])c(Cl)s2)cc1 : IC50 value = 45

The compound identified as O=S(=O)(Nc1cc(C(F)(F)F)cc(C(F)(F)F)c1)c1ccc(-c2ncco2)cc1 registered its IC50 at 448

Reported IC50 ( O=S(=O)(Nc1ccc(Cl)cc1)c1cc(Cl)c(O)c(Cl)c1 ) = 227

Notebook: O=S(=O)(Nc1cccc(C(F)(F)F)c1)c1cc(Br)c(Br)s1 , IC50 read as 199

The recorded IC50 for O=S(=O)(Nc1ccc(C(F)(F)F)cc1)c1cnc(Cl)c(Br)c1 is 258

IC50 recorded for this compound, O=[N+]([O-])c1cccc(S(=O)(=O)Nc2ccc(Cl)cc2)c1 , is 295

Summary for this compound, Cc1ccc(S(=O)(=O)NCCc2c[nH]c3ccc(Cl)cc23)cc1[N+](=O)[O-] : IC50 is 338

IC50 reported for this compound O=[N+]([O-])c1ccc(NS(=O)(=O)c2cc([N+](=O)[O-])c(Cl)s2)cc1 : 41

Record O=S(=O)(Nc1ccc(Cl)cc1)c1cc(Br)c(Br)s1 . Reported IC50: 198

# compound O=S(=O)(Nc1cc(C(F)(F)F)cc(C(F)(F)F)c1)c1ccc(-n2cccn2)cc1 ; its IC50 = 275

Record summary for O=S(=O)(NCc1ccc(Cl)cc1)c1cc(Cl)c(O)c(Cl)c1 : reported IC50 = 375

Value of IC50 reported for the compound CC(C)CN(c1ccc(Cl)cc1)S(=O)(=O)c1cc([N+](=O)[O-])c(Cl)s1 is 249

For reference, reported IC50 for Cn1ncc(-c2ccc(S(=O)(=O)Nc3ccc(C(F)(F)F)cc3)s2)c1C(F)(F)F stands at 350

Form field IC50, entry O=S(=O)(Nc1cc(C(F)(F)F)cc(C(F)(F)F)c1)c1ccc2c(c1)OCCO2 : 375

// CCOC(=O)c1sc(S(=O)(=O)Nc2ccc(Cl)cc2)nc1C : IC50 value = 373

Entry CN(Cc1ccc(C(F)(F)F)cc1)S(=O)(=O)c1cc([N+](=O)[O-])c(Cl)s1 — recorded IC50 = 10.7

The recorded IC50 for O=S(=O)(Nc1cc(C(F)(F)F)cc(C(F)(F)F)c1)c1c(Cl)nc2sccn12 is 308

Entry O=S(=O)(Nc1cc(C(F)(F)F)cc(C(F)(F)F)c1)c1ccc(-c2ccccn2)s1 ; IC50 = 265

The reported value for CC(NS(=O)(=O)c1cc([N+](=O)[O-])c(Cl)s1)c1ccc(F)cc1 (stereo not shown) in terms of IC50 is 31.1

// IC50 value for O=S(=O)(Nc1cc(C(F)(F)F)cc(C(F)(F)F)c1)c1ccc(Br)s1 : 172

The recorded IC50 for Cc1[nH]c(C(=O)O)c(C)c1S(=O)(=O)Nc1ccc(Cl)cc1 is 418

The compound O=[N+]([O-])c1cc(S(=O)(=O)Nc2cc(Cl)cc(Cl)c2)ccc1Cl showed IC50 equal to 234
